# System: biotinyl-Trp-oxazolone
# assay-method-text: self-aminoacylation, catalytic enhancement (BWO) (fold over background); higher = more active; k-Seq, kA / k0A0; sequences stand for … in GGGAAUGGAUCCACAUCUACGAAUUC…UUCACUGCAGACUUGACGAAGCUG
This sample holds only a part of the variants without activity.
measured-metric: self-aminoacylation
Output: the number by itself.

Task: Returns the measured self-aminoacylation for the input sequence. Input: AUUACCCUGUUCACCGAGUGA [Fam2.1 aminoacylation ribozyme variant]
Result: 12.7

Task: Returns the measured self-aminoacylation for the input sequence. Input: AUUCACCUAGGGCACCGGGUG [Fam2.2 aminoacylation ribozyme variant]
Result: 3.62

Task: Returns the measured self-aminoacylation for the input sequence. Input: AAGUUUGUUAAUUGUCGCAAG [Fam3.1 aminoacylation ribozyme variant]
Result: 0.92

Task: Returns the measured self-aminoacylation for the input sequence. Input: AUUUACCUAGGUUAUCGGGUG [Fam2.2 aminoacylation ribozyme variant]
Result: 3.72

Task: Returns the measured self-aminoacylation for the input sequence. Input: AUUAACCGGGUCAUCGAGUGA [Fam2.1 aminoacylation ribozyme variant]
Result: 7.04

Task: Returns the measured self-aminoacylation for the input sequence. Input: AAGUUCGCUAAUAAUCGCAAG [Fam3.1 aminoacylation ribozyme variant]
Result: 0.758

Task: Returns the measured self-aminoacylation for the input sequence. Input: AUUCAACUAGGUCAUCGAGUG [Fam2.2 aminoacylation ribozyme variant]
Result: 1.84

Task: Returns the measured self-aminoacylation for the input sequence. Input: CCACACUCCAGGCAAUCGGUC [Fam1B.1 aminoacylation ribozyme variant]
Result: 2.04

Task: Returns the measured self-aminoacylation for the input sequence. Input: AUUCACCCAGGUCCUCGGGUG [Fam2.2 aminoacylation ribozyme variant]
Result: 5.85

Task: Returns the measured self-aminoacylation for the input sequence. Input: AGUACCCUGGUCAUCGACUGA [Fam2.1 aminoacylation ribozyme variant]
Result: 1.01

Task: Returns the measured self-aminoacylation for the input sequence. Input: AUUCUCCUAGGUCUUCGGGUG [Fam2.2 aminoacylation ribozyme variant]
Result: 7.39

Task: Returns the measured self-aminoacylation for the input sequence. Input: AAGUUUGCGAAUAGUCCCAAG [Fam3.1 aminoacylation ribozyme variant]
Result: 0.863

Task: Returns the measured self-aminoacylation for the input sequence. Input: CUACAUUUCAAGCAAUCGGUC [Fam1B.1 aminoacylation ribozyme variant]
Result: 1.45

Task: Returns the measured self-aminoacylation for the input sequence. Input: AUUCAUCUAGGUCAUGGGGUG [Fam2.2 aminoacylation ribozyme variant]
Result: 4.54

Task: Returns the measured self-aminoacylation for the input sequence. Input: AUUACCCGCGUCAUCGAGUGA [Fam2.1 aminoacylation ribozyme variant]
Result: 5.55

Task: Returns the measured self-aminoacylation for the input sequence. Input: AUUUCCCUAGGUCAUCGGGUG [Fam2.2 aminoacylation ribozyme variant]
Result: 9.73

Task: Returns the measured self-aminoacylation for the input sequence. Input: AAUACCCUGGUCAUCGAGGGA [Fam2.1 aminoacylation ribozyme variant]
Result: 1.85

Task: Returns the measured self-aminoacylation for the input sequence. Input: AAUUUUGCUAAUACUCGCAAG [Fam3.1 aminoacylation ribozyme variant]
Result: 1.03

Taken from the supplement of paper PMC9233669.
